- System: NCI-H23 lung
- assayNotes: NCI-60 one-dose screen, 48 h
- conditionInfo: 10 µM unless noted
About 83,000 compounds went through this panel and 20% of them were active in at least one assay; those are over-represented in the sample as a whole. The source made the active and inactive calls. Rule for the calls: active = growth percent below 10; inactive = the rest.
Lab note: assign the record to one of True for active, False for inactive

compound	measuredOn	labelValue
COC(=O)c1[nH]nc2c1C1(C(=O)N(C)c3ccccc31)C(C#N)=C(N)O2 (stereo not given)	NCI-H23 lung	False
CNC(=O)c1cc(Oc2ccc3nc(NC(=O)c4cc(N5CCOCC5)cc(C(F)(F)F)c4)sc3c2)ccn1	NCI-H23 lung	False
CCO/C=N/C1=C(C#N)C(c2ccc(Cl)cc2)c2sc3c(CC)cccc3c2O1 (stereo not given)	NCI-H23 lung	False
COC(=O)C1(C)CCC[C@]2(C)[C@H]3C[C@H]4C(C(C)C)=C[C@]3(CC[C@@H]12)[C@H]1[C@@H]4[C@@H](OC(=O)c2ccco2)CC[C@@H]1OC(=O)c1ccco1 (stereo not given in full)	NCI-H23 lung	False
C#C[C@]1(O)CC[C@H]2[C@@H]3CC=C4c5sc(-c6ccc(C)cc6)nc5CC[C@]4(C)[C@H]3CC[C@@]21C	NCI-H23 lung	False
COc1cc(C2N=C(NNc3ccccc3)NC(C)=C2C(C)=O)ccc1O (stereo not given)	NCI-H23 lung	False

## Input Tell me the assay call for O=C1[C@H]2Cc3c([nH]c4ccccc34)[C@@H](c3ccc(Br)cc3)N2C(=O)CN1C1CCN(CC2CCCCC2)CC1 please.
## Output True

## Input Tell me the assay call for CC1(C)CC[C@]2(CN)CC[C@]3(C)C(=CC[C@@H]4[C@@]5(C)CCCNC(C)(C)[C@@H]5CC[C@]43C)[C@H]2C1 please.
## Output False

## Input Tell me the assay call for COc1cc(-c2nc(-c3ccccc3)[nH]c2-c2ccnc(NCCCNS(=O)(=O)c3cccc(F)c3)n2)ccc1Cl please.
## Output False

## Input Tell me the assay call for CC1(C)CC[C@]2(C(=O)N3CCOCC3)CC[C@]3(C)C(=CC[C@@H]4[C@@]5(C)C/C(=C/c6ccccn6)C(=O)C(C)(C)[C@@H]5CC[C@]43C)[C@@H]2C1 please.
## Output False

## Input Tell me the assay call for O=C(Nc1cccc(Cl)c1)Nc1nc2ccc([N+](=O)[O-])cc2o1 please.
## Output False

## Input Tell me the assay call for CC1=NC2=NC(=O)/C(=C3/N=C(C)C=C(c4ccccc4)N3N)NN2C(c2ccccc2)=C1 please.
## Output False

## Input Tell me the assay call for C#C[C@]1(O)CC[C@H]2[C@@H]3CC=C4c5sc(-c6ccc7c(c6)OCO7)nc5CC[C@]4(C)[C@H]3CC[C@@]21C please.
## Output True

## Input Tell me the assay call for CC(C)(C)c1ccc(C(=O)Nc2sc3c(c2C(N)=O)CCC(O)C3)cc1 (stereo not given) please.
## Output False

## Input Tell me the assay call for CCCCCc1ccc(S(=O)(=O)Nc2cc(-c3csc(NC(=O)CN4CCN(C)CC4)n3)ccc2N2CCN(C)CC2)cc1 please.
## Output False

## Input Tell me the assay call for CCc1cccc(NC(=O)CNc2cc(S(=O)(=O)N(C)C)cc(C)c2C)c1 please.
## Output False

## Input Tell me the assay call for Cc1ccc(-c2nn(-c3ccccc3)cc2/C=C/C(=O)c2ccc(NC(=O)CCCCCCC(=O)NO)cc2)cc1 please.
## Output False

## Input Tell me the assay call for CCNC(=O)N1CCc2cc(OC)c(OCCc3ccc(OC)cc3)cc2C1c1ccc([N+](=O)[O-])cc1C (stereo not given) please.
## Output False

## Input Tell me the assay call for COc1ccccc1C(=O)Nc1cccc2c1C(=O)C(=O)C=C2 please.
## Output False

## Input Tell me the assay call for CC[C@]12C=CCN3CC[C@@]4(c5cc(NC(=O)COc6cc(O)c7c(=O)cc(-c8ccccc8)oc7c6)c(OC)cc5N(C)[C@H]4[C@@](O)(C(=O)OC)[C@@H]1OC(C)=O)[C@@H]32 please.
## Output True
